Recorded values, source PubChem BioAssay AID588489.

- assay_system: Polyadenylate-binding protein 1 (Homo sapiens) (UniProt P11940)
- Sequence (P11940 whole entry, looked up): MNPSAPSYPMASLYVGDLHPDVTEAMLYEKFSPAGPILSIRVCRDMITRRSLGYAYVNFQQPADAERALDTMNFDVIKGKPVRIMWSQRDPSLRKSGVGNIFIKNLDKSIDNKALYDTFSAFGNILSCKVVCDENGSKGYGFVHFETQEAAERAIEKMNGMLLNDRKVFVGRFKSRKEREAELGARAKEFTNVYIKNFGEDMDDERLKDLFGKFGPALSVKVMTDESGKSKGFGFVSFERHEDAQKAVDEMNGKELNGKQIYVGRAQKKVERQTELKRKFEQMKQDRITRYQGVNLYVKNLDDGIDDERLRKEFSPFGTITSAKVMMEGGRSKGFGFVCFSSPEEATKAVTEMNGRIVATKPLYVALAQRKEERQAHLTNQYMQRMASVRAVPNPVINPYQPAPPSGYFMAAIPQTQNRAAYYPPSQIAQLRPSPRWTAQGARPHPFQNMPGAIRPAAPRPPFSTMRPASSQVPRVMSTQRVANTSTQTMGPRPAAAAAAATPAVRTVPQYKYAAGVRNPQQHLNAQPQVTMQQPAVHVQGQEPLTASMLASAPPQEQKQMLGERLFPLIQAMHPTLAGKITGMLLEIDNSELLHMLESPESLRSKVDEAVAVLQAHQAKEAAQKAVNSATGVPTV
- assay_details: inhibitors of PABP1 MLLE–PAM2 peptide binding, primary screen, biochemical, fluorescence polarization, FITC-PAM2, GST-MLLE (AID 588489);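 further: plate controls were DMSO wells with GST-MLLE for no effect and wells lacking GST-MLLE protein for full effect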
- conditions_used: at 20 µM, active compounds read high
About 1,300 (0.36%) of roughly 360,000 compounds were called active. The sample holds actives, similar compounds and a random draw of the others, so the mix is not that of the screen.
The compounds listed here are annotated with their inhibition.

Illustrative cases are given below, each with its answer.
compound	inhibition
CC(=O)c1cnc(SCCN2C(=O)c3ccccc3C2=O)nc1C	4.46% (inactive)
COC(=O)c1c(C)oc2ccc(N(C(=O)Oc3ccccc3)S(=O)(=O)c3ccccc3)cc12	9.28% (inactive)
O=C(c1ccc(Cn2cc([N+](=O)[O-])cn2)o1)N1CCCC1	-7% (inactive)
CCCCNC(=O)C1(c2ccc(OC)cc2)CCOCC1	-4.07% (inactive)
CC(=O)Nc1ccc(SCC(=O)NC(=O)c2ccc(Cl)cc2)cc1	15.4% (inactive)

Next compound, inhibition to be filled in.
So for `O=C1CCC(=O)N(c2ccccc2)N1` , the logged inhibition turned out to be 3.9% (inactive)
